Attribution: PubChem BioAssay (NCI)

experiment: NCI Yeast Anticancer Drug Screen. Data for the rad50 strain (AID 155);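 note: 0% = growth of vehicle-only cultures of the same strain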; conditions: S. cerevisiae rad50 strain growth inhibition, hits give high values; at 50.0 µM unless noted
This is part of a sample that, as a whole, favours compounds with a hit. Of some 79,000 tested, about 15% had one in any assay.
Please note: 1.0 applies when growth inhibition is -20% or greater, and 0.0 applies otherwise.

{"MOLECULE": "COC(=O)/C=C(/Sc1nc(Cl)c(Cl)nc1N)C(=O)OC (tested in a mixture with another compound)", "CLASS ASSIGNMENT": 1.0}
{"MOLECULE": "CCN(CC)CCCCCCNc1cc(OC)c(OC)c2c(C)ccnc12", "CLASS ASSIGNMENT": 1.0}
{"MOLECULE": "ClCCN1CCOC1=Nc1ccc2c(c1)CCCC2", "CLASS ASSIGNMENT": 0.0}
{"MOLECULE": "CCC[N+](C)(C)CCC#N", "CLASS ASSIGNMENT": 1.0}
{"MOLECULE": "CCCCCCCCCCCCCCCCCC(=O)N/N=C/c1cc(C(C)(C)C)c(O)c(C(C)(C)C)c1", "CLASS ASSIGNMENT": 0.0}
{"MOLECULE": "CC1Nc2ccccc2C1C (stereo unspecified)", "CLASS ASSIGNMENT": 0.0}
